Hey, just so you know, these numbers are from ChEMBL document CHEMBL4765233.

Tested on: MDA-MB-435
Run description: Antiproliferative activity against human MDA-MB-435 cells assessed as reduction in cell viability incubated for 72 hrs by MTT assay
Assay type: functional, cell-based
Stated conditions: MDA-MB-435, 72 h
Quantity: IC50
State the value, then name its unit.

Field IC50 (MDA-MB-435), entry "Cc1ccc(NC(=O)c2cc(Cl)cc(C(F)(F)F)c2)cc1C#Cc1nn(C2CCN(C)CC2)c2ncnc(N)c12" : 63 nM

Entry "Cc1ccc(NC(=O)c2ccc(Cl)c(C(F)(F)F)c2)cc1C#Cc1nn(C[C@@H](C)CO)c2ncnc(N)c12" ; assay system MDA-MB-435; IC50 recorded at 319 nM

Bench note, MDA-MB-435: entry "Cc1ccc(NC(=O)c2ccc(C)c(C(F)(F)F)c2)cc1C#Cc1nn(C2CCN(C)CC2)c2ncnc(N)c12" , its IC50 = 40 nM

Form field, IC50 with MDA-MB-435, item "Cc1ccc(NC(=O)Nc2cccc(C(F)(F)F)c2)cc1C#Cc1nn(C2CCN(C)CC2)c2ncnc(N)c12" : 90 nM

Record "Cc1ccc(NC(=O)c2cccc(C(C)(C)C)c2)cc1C#Cc1nn(C2CCN(C)CC2)c2ncnc(N)c12" ; system MDA-MB-435; IC50 = 20 nM

MDA-MB-435 IC50 of "CN1CCC(n2nc(C#Cc3cc(NC(=O)c4cccc(C(F)(F)F)c4)ccc3Cl)c3c(N)ncnc32)CC1" is 195 nM

The measured IC50 that "Cc1ccc(NC(=O)c2ccnc(C(F)(F)F)c2)cc1C#Cc1nn(C2CCN(C)CC2)c2ncnc(N)c12" showed for MDA-MB-435 is 183 nM

Reading of IC50 for "Cc1ccc(NC(=O)c2cnc(C(C)(C)C)s2)cc1C#Cc1nn(C[C@@H](C)CO)c2ncnc(N)c12" with MDA-MB-435: 73 nM

Result for "Cc1ccc(NC(=O)c2cncc(C(F)(F)F)c2)cc1C#Cc1nn(C2CCN(C)CC2)c2ncnc(N)c12" , tested on MDA-MB-435, IC50: 65 nM

With MDA-MB-435 as the test system, "Cc1nc(Nc2ncc(C(=O)Nc3c(C)cccc3Cl)s2)cc(N2CCN(CCO)CC2)n1.O" showed IC50 of 5150 nM

Measured on MDA-MB-435, "Cc1ccc(NC(=O)c2ccc(F)c(C(F)(F)F)c2)cc1C#Cc1nn(C2CCN(C)CC2)c2ncnc(N)c12" has a documented IC50 of 621 nM

MDA-MB-435 IC50 of "Cc1ccc(C(=O)Nc2cccc(C(F)(F)F)c2)cc1C#Cc1nn([C@@H]2CCN(C)C2)c2ncnc(N)c12" is 44 nM

Param item: "Cc1ccc(NC(=O)c2cccc(C(C)(C)C)c2)cc1C#Cc1nn([C@H]2CC[C@H](O)CC2)c2ncnc(N)c12" ; param system: MDA-MB-435; output IC50: 12 nM

MDA-MB-435 assay, compound "Cc1cccc(C(=O)Nc2ccc(C)c(C#Cc3nn(C4CCN(C)CC4)c4ncnc(N)c34)c2)c1" , recorded IC50 = 422 nM

"Cc1ccc(NC(=O)c2cccc(C(F)(F)F)c2)cc1C#Cc1nn(C[C@@H](C)CO)c2ncnc(N)c12" on MDA-MB-435 gives IC50 = 10 nM

Lab note: compound "Cc1ccc(NC(=O)c2cnc(C(C)(C)C)s2)cc1C#Cc1nn(C2CCN(C)CC2)c2ncnc(N)c12" tested on MDA-MB-435; recorded IC50 was 20 nM

GET /values?item= "Cc1ccc(NC(=O)c2cc(F)cc(C(F)(F)F)c2)cc1C#Cc1nn(C2CCN(C)CC2)c2ncnc(N)c12" &system= MDA-MB-435 returns IC50: 1430 nM

---

Target: Receptor tyrosine-protein kinase erbB-2 (Homo sapiens, UniProt P04626, G778D)
Sequence (P04626 23-1255 G778D limits assumed): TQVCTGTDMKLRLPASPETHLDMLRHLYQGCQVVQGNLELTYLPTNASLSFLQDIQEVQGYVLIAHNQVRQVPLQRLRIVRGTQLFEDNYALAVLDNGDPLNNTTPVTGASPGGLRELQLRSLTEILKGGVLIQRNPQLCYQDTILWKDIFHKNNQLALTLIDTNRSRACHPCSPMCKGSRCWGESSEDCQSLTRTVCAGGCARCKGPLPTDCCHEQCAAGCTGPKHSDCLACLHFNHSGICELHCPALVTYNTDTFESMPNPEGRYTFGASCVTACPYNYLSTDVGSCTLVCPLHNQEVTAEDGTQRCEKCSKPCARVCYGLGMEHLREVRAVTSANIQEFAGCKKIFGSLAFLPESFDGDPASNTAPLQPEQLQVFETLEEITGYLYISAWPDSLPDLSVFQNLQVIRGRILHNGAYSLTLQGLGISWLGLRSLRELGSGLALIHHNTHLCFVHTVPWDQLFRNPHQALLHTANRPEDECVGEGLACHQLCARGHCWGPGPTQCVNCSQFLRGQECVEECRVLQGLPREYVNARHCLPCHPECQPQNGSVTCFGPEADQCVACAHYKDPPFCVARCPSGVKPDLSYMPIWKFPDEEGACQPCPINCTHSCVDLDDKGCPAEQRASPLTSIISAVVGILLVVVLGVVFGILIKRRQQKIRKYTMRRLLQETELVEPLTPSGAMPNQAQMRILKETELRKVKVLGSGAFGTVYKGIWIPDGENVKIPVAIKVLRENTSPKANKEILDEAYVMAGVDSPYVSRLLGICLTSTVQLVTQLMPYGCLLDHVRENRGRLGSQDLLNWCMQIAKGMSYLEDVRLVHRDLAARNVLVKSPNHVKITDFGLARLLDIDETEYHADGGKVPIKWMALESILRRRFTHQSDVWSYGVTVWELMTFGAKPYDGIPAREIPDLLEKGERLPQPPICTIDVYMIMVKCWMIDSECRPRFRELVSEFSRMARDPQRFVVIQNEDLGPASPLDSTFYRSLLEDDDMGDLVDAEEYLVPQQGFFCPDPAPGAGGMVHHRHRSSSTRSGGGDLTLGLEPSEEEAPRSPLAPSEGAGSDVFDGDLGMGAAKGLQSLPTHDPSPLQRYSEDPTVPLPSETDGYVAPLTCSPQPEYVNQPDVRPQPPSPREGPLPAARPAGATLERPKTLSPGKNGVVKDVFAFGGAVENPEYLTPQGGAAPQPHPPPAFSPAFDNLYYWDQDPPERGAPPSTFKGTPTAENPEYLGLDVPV
Run description: Inhibition of human recombinant ERBB2 G778D mutant (676 to end residues) using poly(Glu,Tyr)4:1 as substrate incubated for 40 mins in presence of [gamma33P-ATP] by radiometric scintillation counting analysis
Quantity: IC50 (nM)
Supply the numeric figure in nM, leaving out any unit text.

The molecule "Cc1ccc(NC(=O)c2ccc(C)c(C(F)(F)F)c2)cc1C#Cc1nn([C@H]2CC[C@H](O)CC2)c2ncnc(N)c12" on Receptor tyrosine-protein kinase erbB-2 (Homo sapiens, UniProt P04626, G778D): IC50 was 165

---

Run description: Metabolic stability in dog liver microsomes assessed as parent compound remaining at 1 uM measured after 60 mins in presence of NADPH by HPLC-MS/MS analysis
Format: ADME, Canis lupus familiaris, Microsome
Stated conditions: read-out: Stabilty
Quantity: remaining at 1 h, 1 µM

Data point: "Cc1ccc(NC(=O)c2ccc(C)c(C(F)(F)F)c2)cc1C#Cc1nn([C@H]2CC[C@H](O)CC2)c2ncnc(N)c12" ; remaining at 1 h, 1 µM = > 90%

---

Test system: L02
Run description: Cytotoxicity against human L02 cells assessed as reduction in cell viability incubated for 72 hrs by MTT assay
Type: cell-based
Stated conditions: L02, 72 h
Quantity: IC50

For reference, reported IC50 for "Cc1ccc(NC(=O)c2ccc(C)c(C(F)(F)F)c2)cc1C#Cc1nn([C@H]2CC[C@H](O)CC2)c2ncnc(N)c12" stands at > 10 µM

---

Run description: Half-life in Sprague-Dawley rat at 10 mg/kg, po administered via gavage by LC-MS analysis
Format: ADME, organism-based
Stated conditions: in vivo
Quantity: half-life (h)
The answer is to be given in h; state only the numeric part.

Recorded result, "Cc1ccc(NC(=O)c2cccc(C(F)(F)F)c2)cc1C#Cc1nn([C@H]2CC[C@H](O)CC2)c2ncnc(N)c12" , half-life: 4.7

Notebook: "Cc1ccc(NC(=O)c2ccc(C)c(C(F)(F)F)c2)cc1C#Cc1nn([C@H]2CC[C@H](O)CC2)c2ncnc(N)c12" , half-life read as 18.9

---

Tested on: MDA-MB-435
Run description: Antiproliferative activity against human MDA-MB-435 cells assessed as reduction in cell viability incubated for 72 hrs by MTT assay
Type: functional, cell-based
Stated conditions: MDA-MB-435, 72 h
Quantity: pIC50
# reply with the number alone; pIC50 is -log10 of concentration in mol/L

Hey, MDA-MB-435 data for "COc1cccc(C(=O)Nc2ccc(C)c(C#Cc3nn(C4CCN(C)CC4)c4ncnc(N)c34)c2)c1" : pIC50 came out at 6.55

Bench note, MDA-MB-435: entry "Cc1ccc(NC(=O)c2cccc(C(F)(F)F)c2)cc1C#Cc1nn(C2CCN(C)CC2)c2ncnc(N)c12" , its pIC50 = 7.10

Field pIC50 (MDA-MB-435), entry "Cc1ccc(NC(=O)c2cccc(Cl)c2)cc1C#Cc1nn(C2CCN(C)CC2)c2ncnc(N)c12" : 6.13

Given the compound "COc1ccc(C(=O)Nc2ccc(C)c(C#Cc3nn(C4CCN(C)CC4)c4ncnc(N)c34)c2)cc1" and test system MDA-MB-435, the measured pIC50 is 5.05

Form field pIC50 for item "CN1CCC(n2nc(C#Cc3cc(NC(=O)Nc4cccc(C(F)(F)F)c4)ccc3Cl)c3c(N)ncnc32)CC1" on MDA-MB-435: 6.48

Reported MDA-MB-435 pIC50 for item "Cc1ccc(NC(=O)c2cccc(C(F)(F)F)c2)cc1C#Cc1nn(C[C@H](C)CO)c2ncnc(N)c12" was 8.00

Considering "CN1CCC(n2nc(C#Cc3cc(C(=O)Nc4cccc(C(F)(F)F)c4)ccc3Cl)c3c(N)ncnc32)CC1" , its pIC50 with MDA-MB-435 was recorded as 6.87

The compound "Cc1ccc(NC(=O)c2cccc(C(F)(F)F)c2F)cc1C#Cc1nn(C2CCN(C)CC2)c2ncnc(N)c12" , when measured on MDA-MB-435, yielded pIC50 of 6.56

Observed pIC50, MDA-MB-435, "COc1ccc(C(=O)Nc2ccc(C)c(C#Cc3nn(C4CCN(C)CC4)c4ncnc(N)c34)c2)cc1C(F)(F)F" : 6.08

Here "CN1CCC(n2nc(C#Cc3cccc(C(=O)Nc4cccc(C(F)(F)F)c4)c3)c3c(N)ncnc32)CC1" was tested on MDA-MB-435, and its pIC50 came to 6.46

MDA-MB-435 pIC50 of "Cc1ccc(NC(=O)c2cc(C(F)(F)F)cc(C(F)(F)F)c2)cc1C#Cc1nn(C2CCN(C)CC2)c2ncnc(N)c12" is 7.03

Let me check: "Cc1ccc(NC(=O)c2ccc(C)c(C(F)(F)F)c2)cc1C#Cc1nn([C@H]2CC[C@H](O)CC2)c2ncnc(N)c12" , system MDA-MB-435, measured pIC50 is 8.10

Bench note, MDA-MB-435: entry "Cc1ccc(NC(=O)c2cc(C(F)(F)F)ccc2F)cc1C#Cc1nn(C2CCN(C)CC2)c2ncnc(N)c12" , its pIC50 = 6.93

Reported pIC50 (MDA-MB-435) for entry "CN1CCC(n2nc(C#Cc3cccc(NC(=O)Nc4cccc(C(F)(F)F)c4)c3)c3c(N)ncnc32)CC1" is 6.25

Form: item "Cc1ccc(NC(=O)c2cc(C(F)(F)F)cc(Cl)c2F)cc1C#Cc1nn(C2CCN(C)CC2)c2ncnc(N)c12" ; test system MDA-MB-435; pIC50: 5.47

Record "Cc1ccc(NC(=O)c2ccc(C(F)(F)F)cc2)cc1C#Cc1nn(C2CCN(C)CC2)c2ncnc(N)c12" ; system MDA-MB-435; pIC50 = 5.29

The measured pIC50 that Cc1ccc(C(=O)Nc2cccc(C(F)(F)F)c2)cc1C#Cc1nn(CC2CCN(C)C2)c2ncnc(N)c12 (configuration not stated) showed for MDA-MB-435 is 6.94
